# procedure.text: yeast display, Sf9 membrane polyspecificity reagent, FACS + sequencing; frameworks hold sequencing errors
measured.property: polyreactivity (PSR sort gate)

seq | result
QVQLVESGGGLVQAGGSLRLSCAASGSIFYPYAMGWYRQAPGKERQLVAAISYSGGSTYYADSVKGRFTISRDNAKNTVYLQMNSLKPEDTAVYYCAADVTAGDGRNDYWGIGTQVTVSS | low polyreactivity
QVHLEESGGGLVQAGGSLRLSCAASGRTFYANTMGWYRPAPGKERELVAGITSGGSTSYADSVKGRFTISRDNAKNTVYLQMNSLKPEDTAVYYCAAQFYRYTATGYYADGYWGQGTQVTVSS | low polyreactivity
QVQLVESGGGLVQAGVSLRLSCAASGFNFVFYDMGWYRQAPGKERELVAGITRNDGSTYYADSVKGRFKISRDNAKNTVYLQMNSLKPEDTAVYYCAADRVRRNDKLAYDYWGQGTQVTVSS | low polyreactivity
QVQLVESGGGLVQAGGSLRLSCAASGSIFGTYAMGWYRQAPGKEREFVAAISWADGSTYYADSVKGRFTISRDNAKNTVYLQMNSLNPEDTAVFYCAVRRVGSIYIDRYIYVVADYDYWGQGTQVTVSS | low polyreactivity
QVQLVESGGGLVQAGGSLRLSCAASGSIISWYVMGWYRQAPGKERELVAAITWGGGSRYYADSVKGRFTISRDNAKNTVYLQMNSLKPEDTAVYYCEFDYWGQGTQVSVSS | low polyreactivity
QVQLVESGGGLVQAGGSLRLSCAASGFIFETYAMGWYRQAPGKERELVAAISRGASTYYADSVKGRFTISRDNAKNTVSLQMNSLKQEDTGVYYCAAKRLSWHRYGYWGQGTQVTVSS | low polyreactivity
QVQLVESGGGLVQAGGSLRLSCAASGSTFGRYAMGWYRQAPGKEREMVAAISQRGGSTYYADSVKGRFTISRDYAKNTVYLQMNSLKPEDTAVYYCAAYYTRIRNHYGYWGQGTQVTVSS | high polyreactivity
QVQLVESGGGLVQAGGSLRLSCAASGSILLFYVMGGYRQAPGKERELVAAITSSGGGTYYADSVKGRFTISRDNAKNTVYLQMNSLKPEDTALYYCNADDDYYGESYGPEFDYWGQGTQVTVSS | low polyreactivity
QDQLVESGGGLVQAGGSLRLSCAASGRNFGYYTRGWYRQAPGKERELVATINWSGGNTYYADSVKGRFTISRDNAKNTVYLQMTCLKPEDTAVYYCATRSRAPQQVYYQNYDYWGQGTQVTVSS | high polyreactivity
QVQLVESGGGLVQAGGSLRLSCAASGSTFVYYAMGWYRQAPGKERELVAVITWSGGRTYYADSVKGRFTISRDNAKNTVYVLMNSLKPEDTAVYYCAARYPGYQYGLDYWGEGTQVTVSS | high polyreactivity
QVQLVESGGGLVQAGGSLRLSCASSGLIFPFYDMGWYRQAPGKERELVAAMTRSGDSTYYADSVKGRFTISRDNAKNTVYLQMNSLKPEDTAVSYCAAQPGTASYAGDGDSWGQGTQVTVSS | low polyreactivity
